Assign TGI to each entry below.
System: T-47D breast
Test: NCI tumour cell line growth inhibition, 48 h
Answers are plain numbers, in µM.

compound=COc1cc(C(=O)c2cc(C)c3[nH]c4ccc(Cl)cc4c3c2C)cc(OC)c1OC readout_units=µM numeric_value=39.3
compound=Cc1ccc2c(n1)C(=O)c1[nH]c3ccccc3c1C2=O readout_units=µM numeric_value=17.9
compound="COc1ccc(C2CC(c3cccc(Nc4ccncc4)c3)=NN2c2cc(Cl)cc(Cl)c2)cc1 (stereo not drawn)" readout_units=µM numeric_value=4.43
compound=COc1cc(-c2cc(=O)c3c(OC)c(OC)c(OC)c(OC)c3o2)c(OC)c(OC)c1OC readout_units=µM numeric_value=51
compound=CCC[CH2][Sn]([CH2]CCC)([CH2]CCC)[O]C(=O)CC readout_units=µM numeric_value=0.385

List TGI for every entry below, keeping the order given.
1. COC(=O)Cc1cc(O)c(C/C=C(\C)CC/C=C(\C)C(O)C(=O)C=C(C)C)cc1O (stereo not drawn)
2. COc1ccc2c(c1)C(C)Cc1c(Cl)ncnc1N2C (stereo not drawn)
3. CC(=O)Oc1cccc2c(/C=N/NC(N)=S)ncc(C)c12
4. C[C@H]1c2cccc(O)c2C(O)=C2C(=O)[C@]3(O)C(O)=C(C(N)=O)C(=O)[C@@H](N(C)C)[C@@H]3[C@@H](O)[C@@H]21
5. O=S(=O)(Nc1cc(F)cc(Cl)c1)c1ccc(-c2cnc(C3CC3)o2)cc1

Return:
1: 43.2; 2: 20.5; 3: 31.3; 4: 34.8; 5: 33.5

Go through the list and state TGI for each entry.
1. Cc1cc(N(CCC#N)CCC#N)ccc1/C(N=Nc1ccc([N+](=O)[O-])cc1)=N\NC(=O)c1cc(Cl)ccc1C(=O)c1ccccc1
2. O=[N+]([O-])c1ccc(C=C2C(Cl)=C(Cl)C(Cl)=C2Cl)cc1
3. CCOC(=O)/C=C/C(C(=O)/C=C/c1ccc(OC2CCCCO2)c(OC)c1)=C(O)\C=C\c1ccc(OC2CCCCO2)c(OC)c1 (stereo not drawn)

Return:
1. 50.3
2. 5.46
3. 60.3
